Tested on: U251 CNS
assayInfo: NCI tumour cell line growth inhibition, 48 h
Listing of entries alongside the reported TGI.
experimentalReadout: TGI

>>> df
                                   compound  assayedtarget  experimentalreadout  measuredvalue
0  NC1c2c(Br)sc(N3CCCC3)c2C(=O)C1O (stereo unspecified)       U251 CNS                  TGI        > 50 µM
1  COc1cccc(NC(=O)CC(=O)n2nc(C)c(N=Nc3ccccc3)c2C)c1       U251 CNS                  TGI       > 100 µM
2  CN(C)c1ccc(C2CC(c3ccc4ccccc4c3O)=NN2)cc1 (stereo unspecified)       U251 CNS                  TGI       > 100 µM
3  Cc1sc(Nc2ccc(Nc3nc(-c4ccccc4)c(C)s3)cc2)nc1-c1ccccc1       U251 CNS                  TGI        49.6 µM
4     N=C(N)c1ccc(/C=C/c2ccc(C(=N)N)cc2)cc1       U251 CNS                  TGI       > 100 µM
5                   O=C1C=Cc2c(Br)sc(Br)c21       U251 CNS                  TGI        38.2 µM

###

Test system: U251 CNS
assayInfo: NCI tumour cell line growth inhibition, 48 h; in the data active means GI50 below about 0.43 µM; inactive means the rest
Classes used: Yes (active), No (inactive)

In [3]: df
Out[3]:
                                    compound  answerlabel
 0  NC(CSC(c1ccccc1)(c1ccccc1)c1ccc2c(c1)OCO2)C(=O)O (stereo unspecified)          Yes
 1  NC1CCC(Nc2nc(NCc3ccc(-c4ccco4)nc3)c3ncn(C4CCCC4)c3n2)CC1 (stereo unspecified)          Yes
 2            O=[N+]([O-])c1cnc(Sc2ccncn2)s1           No
 3  Cc1cc(=O)n2[nH]c(-c3ccc(C(C)(C)C)cc3)cc2n1           No
 4  Cn1ccnc1C(=O)/C=C/c1ccc(CC(=O)Nc2ccc(Br)cc2)cc1           No
 5  CC1=C(C#N)C23C(=O)c4ccccc4C(O)=C2C(=O)C=CC3(O)N1Cc1ccccc1 (stereo unspecified)           No
 6  COc1cc(C(=O)/C=C/c2sc(Cl)nc2Cl)cc(OC)c1OC           No
 7        CN(C)CCCNC1=C(Cl)C(=O)c2ccccc2C1=O           No
 8  CNC(=O)c1ccccc1Nc1nc(Nc2ccc(N3CCOCC3)cc2OC)ncc1Cl           No
 9  Fc1ccc(Nc2ncnc3ccc(-c4cnc5[nH]ccc5c4)cc23)cc1Cl           No
10  CC(C)c1ccc(C(C)C(=O)N(CC2=C(C(C)c3ccccn3)c3ccccc3C2)C(C)C)cc1 (stereo unspecified)           No

###

Tested on: SNB-19 CNS
assayInfo: NCI tumour cell line growth inhibition, 48 h; in the data active = GI50 below about 0.43 µM; inactive = the rest
Classes used: active, inactive

>>> df
                                   compound  answerlabel
0  COc1cc2c(c(OC)c1O)C(=O)C(OC)C(c1ccc(O)c(O)c1)O2 (configuration not stated)       active
1  O=C(Nc1ccc(I)cc1)c1cc([N+](=O)[O-])ccc1O     inactive
2  COc1cc2nc(C)nc(N[C@H](C)c3cc(N)cc(C(F)(F)F)c3)c2cc1O[C@H]1CCOC1     inactive
3  COc1ccc2c(c1)C(=O)/C(=C/c1ccc(OCC(=O)Nc3nccs3)cc1)O2     inactive
4  COc1ccc(-c2cc(-c3ccc(Nc4nc(Nc5ccccc5)nc(Nc5ccc(Cl)cc5)n4)cc3)nc(N)c2C#N)cc1     inactive
5  CNC(=O)c1cc(Oc2ccc3nc(NC(=O)Nc4ccc(Cl)c(C(F)(F)F)c4)sc3c2)ccn1     inactive
6    CSc1ccccc1C#C/C=C\C#Cc1ccccc1N1CCCC1=O     inactive

###

System: LOX IMVI melanoma
assayInfo: NCI tumour cell line growth inhibition, 48 h
Listing of entries alongside the reported TGI.
experimentalReadout: TGI

>>> print(df.to_string())
                                   compound  measuredvalue
0            Cc1nc2c(nc1C)C(=O)c1ccccc1C2=O        7.11 µM
1  Fc1ccc(Nc2ncnc3ccc(-c4cnc5[nH]ccc5c4)cc23)cc1Cl      > 29.4 µM
2  CC[C@@]12CCCN3CC[C@]4(c5cccc(OC)c5N(C(C)=O)[C@@H]4CC1)[C@H]32       > 100 µM
3  S=c1nc2sc3c(c2c(Nc2ccc(Cl)cc2)[nH]1)CCCC3       > 100 µM
4  CN1CCc2cc3c(c4c2C1C(O)c1ccccc1-4)OCO3 (stereo not given)        25.1 µM
5  COc1c2c(cc3c1C(=O)c1c(O)cccc1C3=O)CC(O)CC2 (stereo not given)       > 100 µM
6                    CSC(=N/C=C/c1ccccc1)SC       > 100 µM
7  Cn1c2ccc([N+](=O)[O-])cc2c(=O)n1Cc1ccccc1F       > 100 µM
8       COc1ccc2c(c1)C1(C=N2)CCN(C(C)=O)CC1       > 100 µM
9  COC(=O)[C@@H](C)C[C@H](Cc1ccc(F)cc1)NC(=O)c1csc([C@@H](C[C@H](C(C)C)N(C)C(=O)[C@@H](NC(=O)[C@H]2CCCCN2C)C(C)C)OC(C)=O)n1      > 16.7 µM

###

Listing of entries alongside the reported TGI.
Tested on: MDA-N
assayInfo: NCI tumour cell line growth inhibition, 48 h
experimentalReadout: TGI

>>> df
                                   compound  assayedtarget  experimentalreadout  measuredvalue
0  C1=CC2(C=CC13O[C@H](C1CCCCC1)[C@@H](C1CCCCC1)O3)O[C@H](C1CCCCC1)[C@@H](C1CCCCC1)O2          MDA-N                  TGI        > 50 µM
1      Cc1ccc(-c2nnc(-c3ccc4ccccc4c3)o2)cc1          MDA-N                  TGI       > 100 µM
2  O=C1NC(N/N=C/C(O)C(O)C(O)C(O)CO)=N/C1=C\c1ccco1 (stereo not drawn)          MDA-N                  TGI       > 100 µM

###

Test system: SK-MEL-5 melanoma
assayInfo: NCI tumour cell line growth inhibition, 48 h
Listing of entries alongside the reported TGI.
experimentalReadout: TGI

                                   molecule  measuredvalue
0        C[n+]1c2ccccc2c(NCC(=O)O)c2ccccc21       > 100 µM
1  COc1ccc(/C=C\c2cc(OC)c3c(c2)OCO3)c(O)c1O        6.32 µM
2  CCCCCCNC(=O)C(C)C1CCC2(C)C=CC(=O)C(C)=C2C1O (centres undefined)       > 100 µM
3             O=C1C2=C(SCCS2)C(=O)c2ccccc21        3.09 µM
4            O=C(Nc1ccc(F)cc1F)c1cc(I)ccc1O        3.35 µM
5          Cn1c(=O)c2c3ccccc3n(C)c2n(C)c1=O       > 100 µM
6  CC(=O)NC1=C(NCC(C)(C)C)C(=O)c2ccccc2C1=O       > 100 µM
7  CN(Cc1cnc2nc(N)nc(N)c2n1)c1ccc(C(=O)NCCS(=O)(=O)O)cc1       > 100 µM
8            O=[N+]([O-])c1cnc(Sc2ccncn2)s1        14.6 µM

###

System: SK-MEL-28 melanoma
assayInfo: NCI tumour cell line growth inhibition, 48 h
experimentalReadout: GI50

In [3]: df
Out[3]:
                                    compound  measuredvalue
 0  COc1cc2nc(C)nc(N[C@H](C)c3cc(N)cc(C(F)(F)F)c3)c2cc1O[C@H]1CCOC1          16 µM
 1  CC1(C)COC(c2ccc(C(F)(F)F)cc2C(O)c2ccc3ccccc3c2)=N1 (stereo not given)       > 100 µM
 2  COc1ccc(-c2cc(-c3ccc(Nc4nc(Nc5ccccc5)nc(Nc5ccc(Cl)cc5)n4)cc3)nc(N)c2C#N)cc1       0.857 µM
 3  CN(C)c1ccc(-c2cc(-c3ccc(Nc4nc(Nc5ccc(Cl)cc5)nc(Nc5ccc(Cl)cc5)n4)cc3)no2)cc1        6.49 µM
 4  Cc1cnc(NC(=O)C(Cc2ccccc2)NC(=O)c2ccccc2)s1 (stereo not given)        19.8 µM
 5  COC(=O)[C@@H](C)C[C@H](Cc1ccc(F)cc1)NC(=O)c1csc([C@@H](C[C@H](C(C)C)N(C)C(=O)[C@@H](NC(=O)[C@H]2CCCCN2C)C(C)C)OC(C)=O)n1      > 16.7 µM
 6  O=C1NNC(=O)c2ccccc2SSc2ccccc2C(=O)NNC(=O)c2ccccc2SSc2ccccc21        23.1 µM
 7    Cc1cc2nc(C(Cl)Cl)nc(-c3ccc(Cl)cc3)n2n1        1.63 µM
 8  COc1c2ccoc2c(/C=C/C=O)c2oc(-c3ccccc3)cc(=O)c12        2.73 µM
 9  COc1cc(/C=C/c2cc(/C=C/c3ccc(O)c(OC)c3)n(C(=O)Nc3ccc(F)cc3)n2)ccc1O       0.912 µM
10     Oc1ccc(Cl)cc1-c1cc(-c2ccccc2Cl)[nH]n1       > 100 µM
11  CC(C)c1ccc(C(C)C(=O)N(CC2=C(C(C)c3ccccn3)c3ccccc3C2)C(C)C)cc1 (stereo not given)        10.8 µM
12  CCc1ccc2c(c1)C(=O)c1c-2n(CCCBr)c(=O)c2cc([N+](=O)[O-])ccc12        > 50 µM
13  CCOc1ccccc1-n1c(CN2CCN(C(=O)COc3ccc(CNCCCCCCN4C5CCCC4CC(OC(=O)Nc4cc(C)ccc4OC)C5)cc3)CC2)nc2ccccc2c1=O (stereo not given)        1.81 µM
14            O=C(Nc1ccc(F)cc1F)c1cc(I)ccc1O        1.93 µM

The reported numbers originate from PubChem BioAssay (NCI).
